Quick reference for PBM binding z-score among some sequences
System: THRa homodimer (NR concentration 90 nM)
Test: PBM binding z-score (relative to random genomic background probes); higher = stronger binding; sequences stand for … in GC…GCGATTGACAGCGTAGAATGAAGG

Solved entries:
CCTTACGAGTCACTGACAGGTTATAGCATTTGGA 0.813
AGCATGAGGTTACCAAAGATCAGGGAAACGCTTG 0.893
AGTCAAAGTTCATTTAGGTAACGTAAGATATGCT 1.03
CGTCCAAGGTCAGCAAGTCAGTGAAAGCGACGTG 1.67

Any idea what PBM binding z-score came out for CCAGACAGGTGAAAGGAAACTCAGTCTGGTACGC on THRa homodimer (NR concentration 90 nM)?
-0.669

Any idea what PBM binding z-score came out for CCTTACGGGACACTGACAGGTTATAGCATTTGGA on THRa homodimer (NR concentration 90 nM)?
0.0512

Any idea what PBM binding z-score came out for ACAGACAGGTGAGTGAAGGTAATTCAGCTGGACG on THRa homodimer (NR concentration 90 nM)?
-0.521

Any idea what PBM binding z-score came out for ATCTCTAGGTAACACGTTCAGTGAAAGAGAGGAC on THRa homodimer (NR concentration 90 nM)?
0.748

----------
Test system: PPARg:RXRa (NR concentration 180 nM, RXRa partner concentration 90 nM)
Assay: PBM binding z-score (relative to random genomic background probes); higher = stronger binding; sequences stand for … in GC…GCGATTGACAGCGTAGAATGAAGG
Quick reference for PBM binding z-score among some sequences
Answer with a bare number; do not write a unit.

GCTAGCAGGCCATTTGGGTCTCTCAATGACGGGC -0.0162
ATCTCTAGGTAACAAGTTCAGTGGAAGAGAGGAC 1.7
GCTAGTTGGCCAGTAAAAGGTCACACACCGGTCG 1.91
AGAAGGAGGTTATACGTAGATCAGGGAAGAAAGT 1.33
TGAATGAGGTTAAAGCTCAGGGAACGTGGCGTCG 2.86
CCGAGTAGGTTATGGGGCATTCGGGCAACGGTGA 3.36

What does the data say about its PBM binding z-score? Entry: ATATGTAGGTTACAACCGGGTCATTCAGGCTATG
5.74

What does the data say about its PBM binding z-score? Entry: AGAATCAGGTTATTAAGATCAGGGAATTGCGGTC
0.693

What does the data say about its PBM binding z-score? Entry: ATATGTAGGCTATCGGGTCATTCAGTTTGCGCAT
4.12

What does the data say about its PBM binding z-score? Entry: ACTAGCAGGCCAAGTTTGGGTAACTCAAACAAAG
-0.414

What does the data say about its PBM binding z-score? Entry: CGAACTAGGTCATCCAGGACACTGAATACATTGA
7.9

What does the data say about its PBM binding z-score? Entry: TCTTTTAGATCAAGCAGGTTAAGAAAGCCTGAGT
-0.669

----------
Tested on: PPARg:RXRa (NR concentration 180 nM, RXRa partner concentration 90 nM)
Assay: PBM binding z-score (relative to random genomic background probes); higher = stronger binding; sequences stand for … in GC…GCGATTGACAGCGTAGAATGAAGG
Quick reference for PBM binding z-score among some sequences
Answer with a bare number; do not write a unit.

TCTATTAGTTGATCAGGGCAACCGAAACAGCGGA 0.218

What does the data say about its PBM binding z-score? Entry: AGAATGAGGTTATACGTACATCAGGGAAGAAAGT
2.46

What does the data say about its PBM binding z-score? Entry: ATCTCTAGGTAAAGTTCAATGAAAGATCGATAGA
4.11

----------
Tested on: RARa homodimer (NR concentration 270 nM)
Assay: PBM binding z-score (relative to random genomic background probes); higher = stronger binding; sequences stand for … in GC…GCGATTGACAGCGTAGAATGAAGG
measuredProperty: PBM binding z-score
Answer with a bare number; do not write a unit.

Solved entries:
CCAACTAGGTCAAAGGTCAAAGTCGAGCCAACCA 3.1
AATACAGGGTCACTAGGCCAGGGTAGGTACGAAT 1.02
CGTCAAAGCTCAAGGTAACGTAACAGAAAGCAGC -0.0827

Read the next record carefully.
What does the data say about its PBM binding z-score? Entry: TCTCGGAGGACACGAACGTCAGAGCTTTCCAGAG
-1.21

----------
Test system: PPARa:RXRa (NR concentration 270 nM, RXRa partner concentration 90 nM)
Experiment: PBM binding z-score (relative to random genomic background probes); higher = stronger binding; sequences stand for … in GC…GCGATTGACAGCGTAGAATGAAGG
measuredProperty: PBM binding z-score
Answer with a bare number; do not write a unit.

Solved entries:
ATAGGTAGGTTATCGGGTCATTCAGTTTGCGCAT 3.82
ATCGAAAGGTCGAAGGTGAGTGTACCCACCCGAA 4.8
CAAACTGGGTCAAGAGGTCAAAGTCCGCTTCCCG 6.47
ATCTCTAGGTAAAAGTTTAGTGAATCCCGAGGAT 2.34
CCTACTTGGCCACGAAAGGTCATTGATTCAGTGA 4.46

Any idea what PBM binding z-score came out for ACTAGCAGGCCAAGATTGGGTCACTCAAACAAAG on PPARa:RXRa (NR concentration 270 nM, RXRa partner concentration 90 nM)?
1.33

Any idea what PBM binding z-score came out for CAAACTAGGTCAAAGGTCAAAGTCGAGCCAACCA on PPARa:RXRa (NR concentration 270 nM, RXRa partner concentration 90 nM)?
7.8

----------
System: THRa homodimer (NR concentration 90 nM)
Assay: PBM binding z-score (relative to random genomic background probes); higher = stronger binding; sequences stand for … in GC…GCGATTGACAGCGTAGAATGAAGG
Class fulfilled: PBM binding z-score at least 3. Class not fulfilled: PBM binding z-score below 3.

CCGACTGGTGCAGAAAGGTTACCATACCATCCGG not fulfilled
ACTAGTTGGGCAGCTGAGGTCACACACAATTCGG fulfilled
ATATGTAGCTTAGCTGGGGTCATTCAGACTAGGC not fulfilled
CCGACTGGGGTAGAAAGGTTACCATACCATCCGG not fulfilled
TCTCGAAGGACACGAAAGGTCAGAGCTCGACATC not fulfilled

Moving on to the next sequence.
Form field: PBM binding z-score at least 3? Entry: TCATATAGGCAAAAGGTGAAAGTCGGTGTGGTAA
not fulfilled

----------
Test system: PPARg:RXRa IVT, anti-PPARg (NR concentration 270 nM, RXRa partner concentration 90 nM)
Assay: PBM binding z-score (relative to random genomic background probes); higher = stronger binding; sequences stand for … in GC…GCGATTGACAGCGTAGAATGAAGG
Quick reference for PBM binding z-score among some sequences

Solved entries:
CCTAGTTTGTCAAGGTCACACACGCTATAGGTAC 2.96
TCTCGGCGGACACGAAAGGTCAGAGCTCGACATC 0.541
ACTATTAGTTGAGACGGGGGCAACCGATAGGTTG 3.27
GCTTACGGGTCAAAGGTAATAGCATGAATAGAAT 5.28
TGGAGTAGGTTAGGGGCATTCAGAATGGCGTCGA 3.44
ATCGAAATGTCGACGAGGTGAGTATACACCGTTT 0.676
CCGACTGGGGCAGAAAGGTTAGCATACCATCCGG 1.41
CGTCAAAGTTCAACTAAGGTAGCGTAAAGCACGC 1.51
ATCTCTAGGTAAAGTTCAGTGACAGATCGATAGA 2.57
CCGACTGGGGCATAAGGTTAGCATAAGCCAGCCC 2.86

What does the data say about its PBM binding z-score? Entry: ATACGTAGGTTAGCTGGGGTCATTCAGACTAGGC
1.51

What does the data say about its PBM binding z-score? Entry: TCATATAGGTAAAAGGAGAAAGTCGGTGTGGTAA
2.11

What does the data say about its PBM binding z-score? Entry: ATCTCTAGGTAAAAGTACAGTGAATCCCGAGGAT
1.67

What does the data say about its PBM binding z-score? Entry: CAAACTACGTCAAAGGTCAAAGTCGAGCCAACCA
3.98

What does the data say about its PBM binding z-score? Entry: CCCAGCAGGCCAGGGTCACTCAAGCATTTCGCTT
0.512

----------
Quick reference for PBM binding z-score among some sequences
Tested on: PPARg DBDmut:RXRa IVT, anti-PPARg (DBD mutation: PPARg1 K132A/R137A, NR concentration 270 nM, RXRa partner concentration 90 nM)
Assay: PBM binding z-score (relative to random genomic background probes); higher = stronger binding; sequences stand for … in GC…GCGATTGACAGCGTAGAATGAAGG
Answer with a bare number; do not write a unit.

Solved entries:
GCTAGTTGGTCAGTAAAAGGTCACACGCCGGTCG -0.186
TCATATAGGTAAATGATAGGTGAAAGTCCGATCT 1.28

Read the next record carefully.
What does the data say about its PBM binding z-score? Entry: CCTACTGGGCCATTCAGAGGTCTTTGATCATATG
-0.147
